test system: secreted phospholipase B (LPL/LPTA activities); test: Radiometric assay, secreted LPL and LPTA activities (Lyso assay); format: biochemical, Cryptococcus neoformans H99; details: 25 μM
experimentalReadout: Lyso assay (% inhibition) LPL

compound="CCCC[N+](CCCC)(CCCC)CCCCCCCCCCCCCCCC[N+](CCCC)(CCCC)CCCC [1,16-bis-(tributylammonium)hexadecane]" testedtarget="secreted phospholipase B (LPL/LPTA activities)" result=5%
compound=CCCCCCCCCCCCCCCC[P+](CCCC)(CCCC)CCCC testedtarget="secreted phospholipase B (LPL/LPTA activities)" result=15%
compound=CCC[N+](CCC)(CCC)CCCCCCCCCCCC[N+](CCC)(CCC)CCC testedtarget="secreted phospholipase B (LPL/LPTA activities)" result=5%

---

Consider the following compounds and their measured Haemolytic assay (%) readings.
test system: erythrocyte; format: cell-based; conditions: 350 μM; 37° C., 1 h
experimentalReadout: Haemolytic assay (%)

linenotation=CCCC[N+](CCCC)(CCCC)CCCCCCCCCCCC[N+](CCCC)(CCCC)CCCC experimentalreadout="Haemolytic assay (%)" numericreadout=100
linenotation=CCCC[P+](CCCC)(CCCC)CCCCCCCCCCCC[P+](CCCC)(CCCC)CCCC experimentalreadout="Haemolytic assay (%)" numericreadout=0
linenotation=CCCCCCCCCCCCCCCC[N+](CCCC)(CCCC)CCCC experimentalreadout="Haemolytic assay (%)" numericreadout=100
linenotation=CCCCCCCCCCCCCCCC[P+](CCCC)(CCCC)CCCC experimentalreadout="Haemolytic assay (%)" numericreadout=100

---

tested on: cytosolic phospholipase B (LPL/LPTA activities); assay: Radiometric assay, cytosolic LPL/LPTA activities; assay type: biochemical, Cryptococcus neoformans H99; settings: pH 4.0; modifier 10 mM (Triton X-100 0.1% w/v)
Consider the following molecules and their measured Cytosolic LPL activity, percentage of the control readings.
experimentalReadout: Cytosolic LPL activity, percentage of the control (%)

molecule="O=C(O)CN(CCN(CC(=O)O)CC(=O)O)CC(=O)O [EDTA, ethylenediaminetetraacetic acid]" numericreadout=100
molecule="[Mg+2] [Magnesium]" numericreadout=73
molecule="O=C(O)CN(CCOCCOCCN(CC(=O)O)CC(=O)O)CC(=O)O [EGTA, ethyleneglycoldiamine tetraacetic acid]" numericreadout=86
molecule="[Cl][Fe]([Cl])[Cl] [FeCl3]" numericreadout=81
molecule="[Ca+2] [Calcium]" numericreadout=100

---

test system: secreted phospholipase B (LPL/LPTA activities); assay: Radiometric assay, secreted LPL and LPTA activities (Lyso assay); format: biochemical, Cryptococcus neoformans H99; settings: 2.5 μM
experimentalReadout: Lyso assay (% inhibition) LPTA (%)

linenotation=CCC[N+](CCC)(CCC)CCCCCCCCCCCC[N+](CCC)(CCC)CCC experimentalreadout="Lyso assay (% inhibition) LPTA" numericreadout=0
linenotation=CCCC[P+](CCCC)(CCCC)CCCCCCCCCCCC[P+](CCCC)(CCCC)CCCC experimentalreadout="Lyso assay (% inhibition) LPTA" numericreadout=0
linenotation=CCCCCCCCCCCCCCCC[P+](CCCC)(CCCC)CCCC experimentalreadout="Lyso assay (% inhibition) LPTA" numericreadout=0

---

System: secreted phospholipase B (PLB activity)
Assay: Radiometric assay, secreted PLB activity
Type: biochemical, Cryptococcus neoformans H99
Conditions: 25 μM
Method: Fungal isolates and media. […] Isolate H99 was kindly supplied by Dr. Gary Cox (Duke University Medical Center, Durham, N.C., USA), and subcultured onto Sabouraud dextrose agar (SDA) at 30° C. […] Radiometric assay method for phospholipases. Enzyme activities were measured as described previously in a final volume of 125 μL at 37° C. […] These activities were measured by the appearance of radiolabel from PC in Lyso PC, diacylglycerol and phosphatidic acid, respectively. […]
# if value of PLB assay (% inhibition) reaches 70%, tag Yes; if it stays below, tag No

molecule=C(CCCCCC[N+]12CCC(CC1)CC2)CCCCC[N+]12CCC(CC1)CC2 labelclass=No
molecule=CCCCCCCCCCCCCCCC[P+](CCCC)(CCCC)CCCC labelclass=No
molecule="C[N+]1(CCCCCCCCCCCC[N+]2(C)CCCC2)CCCC1 [C12-bis-N-methyl-pyro. dibromide]" labelclass=No
molecule=C[N+](C)(C)CCCCCCCCCCCC[N+](C)(C)C labelclass=No
molecule=CCCCC[N+](CCCCC)(CCCCC)CCCCCCCCCCCC[N+](CCCCC)(CCCCC)CCCCC.[Br-].[Br-] labelclass=Yes
molecule="CCCC[N+](CCCC)(CCCC)CCCCCCCCCC[N+](CCCC)(CCCC)CCCC [Compound 2]" labelclass=Yes

---

Consider the following compounds and their measured Cytosolic PLB activity, percentage of the control readings.
test system: cytosolic phospholipase B (PLB activity); experiment: Radiometric assay, cytosolic PLB activity; format: biochemical, Cryptococcus neoformans H99; conditions: pH 7.0; modifier 10 mM (Triton X-100 0.1% w/v)
experimentalReadout: Cytosolic PLB activity, percentage of the control (%)

compound="O=C(O)CN(CCOCCOCCN(CC(=O)O)CC(=O)O)CC(=O)O [EGTA, ethyleneglycoldiamine tetraacetic acid]" measurementunit=% numericreadout=163
compound="O=C(O)CN(CCN(CC(=O)O)CC(=O)O)CC(=O)O [EDTA, ethylenediaminetetraacetic acid]" measurementunit=% numericreadout=100
compound="[Cl][Fe]([Cl])[Cl] [FeCl3]" measurementunit=% numericreadout=61

---

system: secreted phospholipase B (PLB activity); experiment: Radiometric assay, secreted PLB activity; assay type: biochemical, Cryptococcus neoformans H99; settings: 2.5 μM
# if value of PLB assay (% inhibition) reaches 6%, tag Met; if it stays below, tag Not met

linenotation=CCCC[N+](CCCC)(CCCC)CCCCCCCCCC[N+](CCCC)(CCCC)CCCC labelclass=Met
linenotation=CCCCCCCCCCCCCCCC[P+](CCCC)(CCCC)CCCC labelclass=Met
linenotation=C(CCCCCC[N+]12CCC(CC1)CC2)CCCCC[N+]12CCC(CC1)CC2 labelclass="Not met"
linenotation=CCCC[P+](CCCC)(CCCC)CCCCCCCCCCCC[P+](CCCC)(CCCC)CCCC labelclass="Not met"
linenotation=CC(C)CC[N+](CCCCCCCCCCCC[N+](CCC(C)C)(CCC(C)C)CCC(C)C)(CCC(C)C)CCC(C)C.[Cl-].[Cl-] labelclass=Met
linenotation=CCCCC[N+](CCCCC)(CCCCC)CCCCCCCCCCCC[N+](CCCCC)(CCCCC)CCCCC.[Br-].[Br-] labelclass=Met

---

Consider the following compounds and their measured Cytosolic PLB activity, percentage of the control readings.
tested on: cytosolic phospholipase B (PLB activity); experiment: Radiometric assay, cytosolic PLB activity; format: biochemical, Cryptococcus neoformans H99; conditions: pH 4.0; modifier 10 mM (Triton X-100 0.1% w/v)
experimentalReadout: Cytosolic PLB activity, percentage of the control

compound="O=C(O)CN(CCN(CC(=O)O)CC(=O)O)CC(=O)O [EDTA, ethylenediaminetetraacetic acid]" result=100%
compound="O=C(O)CN(CCOCCOCCN(CC(=O)O)CC(=O)O)CC(=O)O [EGTA, ethyleneglycoldiamine tetraacetic acid]" result=100%
compound="[Ca+2] [Calcium]" result=100%
compound="[Cl][Fe]([Cl])[Cl] [FeCl3]" result=79%
compound="[Mg+2] [Magnesium]" result=100%

---

Consider the following molecules and their measured Lyso assay (% inhibition) LPL readings.
tested on: secreted phospholipase B (LPL/LPTA activities); test: Radiometric assay, secreted LPL and LPTA activities (Lyso assay); format: biochemical, Cryptococcus neoformans H99; details: 250 μM
experimentalReadout: Lyso assay (% inhibition) LPL

molecule="CCCC[N+](CCCC)(CCCC)CCCCCCCCCCCCCCCC[N+](CCCC)(CCCC)CCCC [1,16-bis-(tributylammonium)hexadecane]" experimentalreadout="Lyso assay (% inhibition) LPL" result=10%
molecule="CCCC[P+](CCCC)(CCCC)CCCCCCCCCCCC[P+](CCCC)(CCCC)CCCC [Compound 1]" experimentalreadout="Lyso assay (% inhibition) LPL" result=6%
molecule=CCCCCCCCCCCCCCCC[P+](CCCC)(CCCC)CCCC experimentalreadout="Lyso assay (% inhibition) LPL" result=98%
molecule=CCC[N+](CCC)(CCC)CCCCCCCCCCCC[N+](CCC)(CCC)CCC experimentalreadout="Lyso assay (% inhibition) LPL" result=8%

---

system: membrane-associated phospholipase B (LPL/LPTA activities); test: Radiometric assay, membrane-associated LPL/LPTA activities; assay type: biochemical, Cryptococcus neoformans H99; details: pH 7.0; modifier 10 mM (Triton X-100 0.1% w/v)
experimentalReadout: Membrane-associated LPL activity, percentage of the control (%)

linenotation=O=C(O)CN(CCOCCOCCN(CC(=O)O)CC(=O)O)CC(=O)O measurementunit=% numericreadout=100
linenotation=O=C(O)CN(CCN(CC(=O)O)CC(=O)O)CC(=O)O measurementunit=% numericreadout=96

---

Consider the following compounds and their measured Membrane-associated LPTA activity, percentage of the control readings.
tested on: membrane-associated phospholipase B (LPL/LPTA activities); assay: Radiometric assay, membrane-associated LPL/LPTA activities; type: biochemical, Cryptococcus neoformans H99; settings: pH 4.0; modifier 10 mM (Triton X-100 0.1% w/v)
experimentalReadout: Membrane-associated LPTA activity, percentage of the control (%)

linenotation=[Ca+2] numericreadout=96
linenotation=O=C(O)CN(CCN(CC(=O)O)CC(=O)O)CC(=O)O numericreadout=94
linenotation=[Cl][Fe]([Cl])[Cl] numericreadout=75
linenotation=O=C(O)CN(CCOCCOCCN(CC(=O)O)CC(=O)O)CC(=O)O numericreadout=90
linenotation=[Mg+2] numericreadout=91

Where do the numbers come from? From patent US7947854B2.
